// provenance: ChEMBL document CHEMBL4219038

MEASUREMENT NOTES: MRT in mouse at 100 mg/kg, po
Format: ADME, organism-based
APPLIED CONDITIONS: in vivo
OUTCOME MEASURE: MRT (h)
Provide only the numeric value, understood in h.

Problem: Which measured MRT value corresponds to Cc1nn(-c2nc(-c3ccc(Cl)c(Cl)c3)c(SC(C)C)s2)c(C(=O)O)c1-c1cc(Cl)cc(Cl)c1 ?
Result: 14.3

###

MEASUREMENT NOTES: Tmax in po dosed mouse
Type: ADME, organism-based
APPLIED CONDITIONS: in vivo
OUTCOME MEASURE: Tmax (h)
Report the figure in h without appending any unit label.

Problem: Field request: Tmax | item: Cc1nn(-c2nc(-c3ccc(Cl)c(Cl)c3)c(SC(C)C)s2)c(C(=O)O)c1-c1cc(Cl)cc(Cl)c1
Result: 5
